The measurements presented in this section are drawn from paper PMC6600545.

# assayed_target: P. capsici α, β-tubulin microtubule polymerization (Phytophthora capsici, UniProt A4ZYP2+A4ZYP4)
# Sequence (A4ZYP4 1-453): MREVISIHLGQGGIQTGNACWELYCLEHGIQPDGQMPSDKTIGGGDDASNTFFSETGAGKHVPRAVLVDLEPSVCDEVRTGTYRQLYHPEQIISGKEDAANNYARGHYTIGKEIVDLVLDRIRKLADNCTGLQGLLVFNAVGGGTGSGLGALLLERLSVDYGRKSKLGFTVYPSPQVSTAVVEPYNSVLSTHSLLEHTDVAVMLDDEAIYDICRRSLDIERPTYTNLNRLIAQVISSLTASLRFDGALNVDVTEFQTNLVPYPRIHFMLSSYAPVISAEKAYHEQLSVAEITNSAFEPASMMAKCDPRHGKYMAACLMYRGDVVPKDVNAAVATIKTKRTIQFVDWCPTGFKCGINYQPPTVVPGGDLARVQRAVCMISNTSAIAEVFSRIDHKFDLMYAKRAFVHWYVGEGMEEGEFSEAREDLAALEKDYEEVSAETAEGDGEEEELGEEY
# Sequence (A4ZYP2 1-446): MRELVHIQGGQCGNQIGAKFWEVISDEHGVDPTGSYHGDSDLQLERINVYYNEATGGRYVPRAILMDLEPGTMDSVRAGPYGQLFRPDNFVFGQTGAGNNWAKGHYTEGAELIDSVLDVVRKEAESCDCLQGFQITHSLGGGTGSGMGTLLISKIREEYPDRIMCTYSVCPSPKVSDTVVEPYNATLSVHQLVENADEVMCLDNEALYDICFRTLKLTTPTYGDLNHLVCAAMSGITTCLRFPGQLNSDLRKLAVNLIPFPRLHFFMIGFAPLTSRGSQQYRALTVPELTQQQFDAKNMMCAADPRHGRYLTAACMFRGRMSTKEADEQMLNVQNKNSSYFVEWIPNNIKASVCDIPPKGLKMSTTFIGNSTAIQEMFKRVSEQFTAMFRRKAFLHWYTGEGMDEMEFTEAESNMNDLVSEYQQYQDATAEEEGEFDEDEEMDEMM
# protocol: biochemical
Peptide text beside a SMILES is read from it. * marks the point of attachment. FITC = O=C1OC2(c3ccc(O)cc3Oc3cc(O)ccc32)c2ccc(NC(=S)*)cc21
observable: IC50 (µM)
Write it as a number; the unit µM goes unstated.

Task: Need IC50 of CC(=O)N[C@H](C(=O)N[C@@H](CC(N)=O)C(=O)N1CCC[C@H]1C(=O)N[C@@H](CCC(N)=O)C(=O)N[C@@H](C)C(=O)N[C@@H](CCCNC(=N)N)C(=O)N[C@@H](Cc1c[nH]c2ccccc12)C(=O)N[C@@H](Cc1c[nH]cn1)C(=O)N[C@@H](CCC(=O)O)C(=O)N[C@@H](Cc1ccc(O)cc1)C(=O)N[C@@H](CC(N)=O)C(=O)N[C@@H](Cc1ccccc1)C(=O)N[C@@H](CCCCNC(=S)Nc1ccc2c(c1)C(=O)OC21c2ccc(O)cc2Oc2cc(O)ccc21)C(N)=O)[C@@H](C)O [β_P1] (Ac-TNPQARWHEYNFK(FITC)-NH2) , thanks.
Result: 6.91

###

# assayed_target: P. capsici α, β-tubulin
# protocol: Fluorometric binding affinity of FITC-labeled synthetic peptides
# Set-up: species or system Phytophthora capsici
# condition_info: FITC-labeled peptide, immobilised tubulin in 96-well plate, 2 h, ex 495 / em 520 nm
Peptide text beside a SMILES is read from it. * marks the point of attachment. FITC = O=C1OC2(c3ccc(O)cc3Oc3cc(O)ccc32)c2ccc(NC(=S)*)cc21
observable: Kd (nM)
Report the figure in nM without appending any unit label.

Task: Return reported Kd; argument: CC[C@H](C)[C@H](NC(C)=O)C(=O)N[C@H](C(=O)N[C@@H](CCSC)C(=O)N[C@@H](CO)C(=O)N[C@H](C(=O)N1CCC[C@H]1C(=O)N[C@@H](C)C(=O)N[C@@H](Cc1c[nH]cn1)C(=O)N[C@@H](CC(N)=O)C(=O)N[C@@H](C)C(=O)N[C@@H](CCCCN)C(=O)N[C@@H](CCC(=O)O)C(=O)N[C@@H](CCCCNC(=S)Nc1ccc2c(c1)C(=O)OC21c2ccc(O)cc2Oc2cc(O)ccc21)C(N)=O)C(C)C)[C@@H](C)O [α_P1] (Ac-ITMSVPAHNAKEK(FITC)-NH2)
Result: 69.5

###

For each record, write down the corresponding percent inhibition of microtubule polymerization.
# assayed_target: P. capsici α, β-tubulin microtubule polymerization (Phytophthora capsici, UniProt A4ZYP2+A4ZYP4)
# protocol: Inhibition of microtubule polymerization by phages (turbidity at 350 nm)
# Type: biochemical
# condition_info: phage 10 nM, 40 min reaction time
Peptide text beside a SMILES is read from it. * marks the point of attachment. FITC = O=C1OC2(c3ccc(O)cc3Oc3cc(O)ccc32)c2ccc(NC(=S)*)cc21
Respond with the bare value in %.

Task: For the molecule shown here, CC(=O)N[C@H](C(=O)N[C@@H](CC(N)=O)C(=O)N1CCC[C@H]1C(=O)N[C@@H](CCC(N)=O)C(=O)N[C@@H](C)C(=O)N[C@@H](CCCNC(=N)N)C(=O)N[C@@H](Cc1c[nH]c2ccccc12)C(=O)N[C@@H](Cc1c[nH]cn1)C(=O)N[C@@H](CCC(=O)O)C(=O)N[C@@H](Cc1ccc(O)cc1)C(=O)N[C@@H](CC(N)=O)C(=O)N[C@@H](Cc1ccccc1)C(=O)N[C@@H](CCCCNC(=S)Nc1ccc2c(c1)C(=O)OC21c2ccc(O)cc2Oc2cc(O)ccc21)C(N)=O)[C@@H](C)O [β_P1] (Ac-TNPQARWHEYNFK(FITC)-NH2) , give the reported percent inhibition of microtubule polymerization.
Result: 21

Task: Item CC(=O)N[C@@H](CC(N)=O)C(=O)N[C@@H](Cc1c[nH]cn1)C(=O)N[C@@H](Cc1ccccc1)C(=O)N[C@H](C(=O)N1CCC[C@H]1C(=O)N[C@H](C(=O)N[C@@H](CO)C(=O)N[C@@H](CC(N)=O)C(=O)N[C@@H](CCCNC(=N)N)C(=O)N[C@@H](Cc1ccccc1)C(=O)N[C@@H](CC(N)=O)C(=O)N[C@@H](C)C(=O)N[C@@H](CCCCNC(=S)Nc1ccc2c(c1)C(=O)OC21c2ccc(O)cc2Oc2cc(O)ccc21)C(N)=O)[C@@H](C)O)C(C)C [α_P3] (Ac-NHFVPTSNRFNAK(FITC)-NH2) has what recorded percent inhibition of microtubule polymerization?
Result: 32

Task: Returns the measured percent inhibition of microtubule polymerization for the input molecule. Input: CC(=O)N[C@H](C(=O)N[C@@H](CC(N)=O)C(=O)N[C@H](C(=O)N[C@@H](CO)C(=O)N[C@@H](Cc1c[nH]c2ccccc12)C(=O)N[C@@H](CC(=O)O)C(=O)N1CCC[C@H]1C(=O)N[C@@H](CCC(N)=O)C(=O)N[C@@H](Cc1ccc(O)cc1)C(=O)N[C@@H](CC(N)=O)C(=O)N1CCC[C@H]1C(=O)N[C@@H](CC(=O)O)C(=O)N[C@@H](CCCCNC(=S)Nc1ccc2c(c1)C(=O)OC21c2ccc(O)cc2Oc2cc(O)ccc21)C(N)=O)[C@@H](C)O)[C@@H](C)O [α_P2] (Ac-TNTSWDPQYNPDK(FITC)-NH2)
Result: 54

Task: For CC[C@H](C)[C@H](NC(C)=O)C(=O)N[C@H](C(=O)N[C@@H](CCSC)C(=O)N[C@@H](CO)C(=O)N[C@H](C(=O)N1CCC[C@H]1C(=O)N[C@@H](C)C(=O)N[C@@H](Cc1c[nH]cn1)C(=O)N[C@@H](CC(N)=O)C(=O)N[C@@H](C)C(=O)N[C@@H](CCCCN)C(=O)N[C@@H](CCC(=O)O)C(=O)N[C@@H](CCCCNC(=S)Nc1ccc2c(c1)C(=O)OC21c2ccc(O)cc2Oc2cc(O)ccc21)C(N)=O)C(C)C)[C@@H](C)O [α_P1] (Ac-ITMSVPAHNAKEK(FITC)-NH2) , what is its reported percent inhibition of microtubule polymerization?
Result: 28
